SUBJECT OF TEST: Nonstructural protein 3 (Zika virus, UniProt A0A024AXB9)
Sequence (A0A024AXB9 whole entry): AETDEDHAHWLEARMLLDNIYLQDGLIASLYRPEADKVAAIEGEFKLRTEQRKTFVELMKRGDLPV
METHOD: Functional biochemical assay to identify treatments for viral infectious disease that targets Zika NS2B-NS3 protease. Utilizing a direct enzyme activity measurement method, reading the fluorescence intensity is used to characterize the relative potency of inhibitors as IC50. Synthetic construct has been made based on Zika virus (strain PRVABC59) by Centre for Medicines Discovery, University of Oxford, and the assay has been performed by Enamine biological services, Bienta Ltd.The protocol is publicly available: dx.doi.org/10.17504/protocols.io.36wgqn273gk5/v1
I'd be grateful if you could share measured IC50 for these entries.

Would you mind telling me what IC50 value was observed for `N#Cc1cccc(-c2nc3c(C(=O)NCc4ccccn4)cc(Cl)cc3[nH]2)c1` ?
> 25 µM

State the recorded IC50 for this entry: `Cc1c(C(=O)Nc2cc(C3CCOCC3)ccn2)cc(C2CC2)n1C`
> 25 µM

Any idea what its IC50 is? The compound is `N#Cc1cccc(-c2nc3c(C(=O)NCc4cccnc4)cc(Cl)cc3[nH]2)c1`
> 25 µM

// query IC50 value for entry `N#Cc1cccc(-c2nc3c(C(=O)Nc4ccc(F)cc4)cc(Cl)cc3[nH]2)c1`
> 25 µM

I have this compound here, `Cc1c(C(=O)Nc2ccc3c(c2F)CCN(C)C3=O)cc(C2CC2)n1C` , and I need its recorded IC50.
> 25 µM

Quick check: IC50 of `Cn1nc(CNc2cc([C@H]3CCOC3)ccn2)cc1C1CC1` ?
> 25 µM

What value of measured IC50 is listed for `N#Cc1cccc(-c2nc3c(C(=O)Nc4cccnc4)cc(Cl)cc3[nH]2)c1` ?
> 25 µM

Bench note: what IC50 did `CC(=O)N1CC[C@]2(C1)C(=O)Nc1cccc(C(=O)Nc3ccc4c(c3)CNC4)c12` show?
0.714 µM

Entry `Cc1c(C(=O)Nc2ccc3c(c2)CN(C)C3=O)cc(C2CC2)n1C` : reported IC50 = ?
> 25 µM

Query: IC50; subject: `O=C(NCC(F)F)[C@H](Nc1ccc2c(n1)CNC2)c1cc(Cl)cc(C2CC2)c1`
5.5 µM

Requested field: IC50. Item: `O=C1Cc2c(cccc2C(=O)Nc2ccc3c(c2)[C@H](O)CCO3)N1`
> 25 µM

Which IC50 is listed for `O=C1Cc2c(cccc2C(=O)Nc2nnc3n2CCCS3)N1` ?
> 25 µM

Data request, read-out IC50, for `O=C1Cc2c(cccc2C(=O)Nc2nc([C@H]3CCCOC3)cs2)N1`
> 25 µM

# query: IC50 of entry `N#Cc1cccc(-c2nc3c(C(=O)NCc4ccccc4)cc(Cl)cc3[nH]2)c1`
> 25 µM

Please look up its IC50: `O=C([C@H](Nc1ccc2c(c1)CNC2)c1cc(Cl)cc(C2CC2)c1)N1CCOCC1`
2.1 µM

Could you share which IC50 value was measured for `N[C@H]1Cc2ccc(NC(=O)c3cccc4c3CC(=O)N4)cc2C1` ?
7.5 µM

Data request, read-out IC50, for `Cc1c(C(=O)Nc2cccc(-c3ccoc3)c2)cc(C2CC2)n1C`
> 25 µM

# get_value(readout='IC50', item= `Cc1cc(NC(=O)c2cc(C3CC3)n(C)c2C)ccc1OC1CCOCC1` )
> 25 µM

Returns the measured IC50 for the input compound. Input: `CS(=O)(=O)c1cncc(-c2cc(F)cc(C(=O)Nc3ccc4c(c3)CNC4)c2)c1`
0.158 µM

Can you look up the measured IC50 of `NCCCn1c(C2CC2)cc(C(=O)Nc2cc([C@H]3CCOC3)ccn2)c1C1CC1` for me?
> 25 µM

# IC50 lookup, item `CC(C)CNC(=O)c1cc(Cl)cc2[nH]c(-c3cccc(C#N)c3)nc12`
> 25 µM

Given `CC(C)(C)OC(=O)N1Cc2ccc(N[C@H](C(=O)O)c3cc(Cl)cc4[nH]ncc34)cc2C1` , state its recorded IC50.
> 25 µM

If you can, please state the reported IC50 value of `O=C(Nc1cnc2c(c1)CNC2)c1cc(F)cc2[nH]ncc12` .
0.083 µM

# lookup: IC50 of `Clc1cc(CNc2ncc3c(n2)CNC3)c2cn[nH]c2c1`
> 25 µM

Record request: IC50 value, item `NCCc1cccc(NC(=O)c2cccc3c2CC(=O)N3)c1`
0.533 µM

Name the recorded IC50 for `O=C1Cc2c(cccc2C(=O)Nc2ccc3c(c2)CCNCC3)N1` .
2.11 µM

# get_value(readout='IC50', item= `NCc1cccc(NC(=O)c2cccc3c2CC(=O)N3)c1` )
2.32 µM

IC50 lookup needed for `Cc1c(C(=O)Nc2cccc(-c3nc(C4CC4)no3)c2)cc(C2CC2)n1C` , thanks.
> 25 µM

Which IC50 value belongs to `O=C(Nc1cc2c(cn1)CNC2)c1cc(F)cc2[nH]ncc12` ?
0.163 µM

Data request, read-out IC50, for `O=C1Cc2c(cccc2C(=O)Nc2ccnn2Cc2ccncc2)N1`
> 25 µM
